Data origin: patent US5610310A

Would you kindly list log10 Ki for each of these compounds?
EXPERIMENTAL SYSTEM: PAF receptor (rabbit platelet membranes) (Oryctolagus cuniculus, UniProt G1TEI7)
Construct: Rabbit platelets were prepared by centrifugation and washing; tissue Pel-Freez (Rogers, AR); lysed membranes)
Sequence (G1TEI7 1-342): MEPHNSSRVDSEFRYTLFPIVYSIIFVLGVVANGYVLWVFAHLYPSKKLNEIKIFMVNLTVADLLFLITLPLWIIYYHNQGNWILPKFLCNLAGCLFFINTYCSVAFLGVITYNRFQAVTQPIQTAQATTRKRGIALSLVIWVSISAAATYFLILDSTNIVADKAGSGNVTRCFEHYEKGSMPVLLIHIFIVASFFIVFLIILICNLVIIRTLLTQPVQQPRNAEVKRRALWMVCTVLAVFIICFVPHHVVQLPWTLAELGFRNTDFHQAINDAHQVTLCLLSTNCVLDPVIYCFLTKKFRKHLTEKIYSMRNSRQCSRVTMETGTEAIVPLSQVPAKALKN
EXPERIMENTAL PROTOCOL: PAF Receptor Binding Assay
TEST PARAMETERS: 0.6 nM [^3 H]C18 -PAF, 60 minutes, room temperature, calculated as IC50/2
Base-10 log of Ki, unit nM.

Request: Find the recorded log10 Ki belonging to CCCCCCCCCCCCCCCCNC(=O)OC[C@H]1C[C@H](COC(=O)N(Cc2cccc[n+]2CC)C(C)=O)S1 (relative stereo) and report it.
Result: 0.99

Request: Find the recorded log10 Ki belonging to CCCCCCCCCCCCCCCCCCNC(=O)OC[C@H]1C[C@H](COC(=O)N(Cc2cccc[n+]2CC)C(C)=O)S1 (relative stereo) and report it.
Result: 0.63

Request: Find the recorded log10 Ki belonging to CCCCCCCCCCCCCCCCCCNC(=O)OCC1(COC(=O)CCCCC[n+]2cccc3ccccc32)CSC1 and report it.
Result: 1.48

Request: Find the recorded log10 Ki belonging to CCCCCCCCCCCCCCCCCCNC(=O)OCC1(COC(=O)CCCCC[n+]2ccsc2)COC1 and report it.
Result: 1.48

Request: Find the recorded log10 Ki belonging to CCCCCCCCCCCCCCCCOC[C@H]1C[C@H](COC(=O)N(Cc2cccc[n+]2CC)C(C)=O)S1 (relative stereo) and report it.
Result: 1.30

Request: Find the recorded log10 Ki belonging to CCCCCCCCCCCCCCCCCCNC(=O)OC[C@@H]1C[C@H](COC(=O)N(Cc2cccc[n+]2CC)C(C)=O)S1 (relative stereo) and report it.
Result: 0.99

Request: Find the recorded log10 Ki belonging to CCCCCCCCCCCCCCCCCCNC(=O)OCC1(COC(=O)N(Cc2cccc[n+]2CC)C(C)=O)C[S+]([O-])C1 (stereo not drawn) and report it.
Result: 0.97

Request: Find the recorded log10 Ki belonging to CCCCCCCCCCCCCCCCNC(=O)OCC1(COC(=O)N(Cc2cccc[n+]2CC)C(C)=O)COC1 and report it.
Result: 1.98

Request: Find the recorded log10 Ki belonging to CCCCCCCCCCCCCCCCCCNC(=O)OC[C@H]1C[C@H](COC(=O)N(Cc2cccc[n+]2CC)C(C)=O)C1 and report it.
Result: 0.63

Request: Find the recorded log10 Ki belonging to CCCCCCCCCCCCCCCCOC[C@H]1C[C@@H](COC(=O)N(Cc2cccc[n+]2CC)C(C)=O)O1 (relative stereo) and report it.
Result: 1.33

Request: Find the recorded log10 Ki belonging to CCCCCCCCCCCCCCCCCCNC(=O)OCC1(COC(=O)N(Cc2cccc[n+]2CC)C(C)=O)CCCC1 and report it.
Result: 0.58

Request: Find the recorded log10 Ki belonging to CCCCCCCCCCCCCCCCCCNC(=O)OCC1(COC(=O)N(Cc2cccc[n+]2CC)C(C)=O)CCC1 and report it.
Result: 0.82

Request: Find the recorded log10 Ki belonging to CCCCCCCCCCCCCCCCCCNC(=O)OC[C@@H]1C[C@@H](COC(=O)N(Cc2cccc[n+]2CC)C(C)=O)N1C(C)=O (relative stereo) and report it.
Result: 1.54

Request: Find the recorded log10 Ki belonging to CCCCCCCCCCCCCCCCOC[C@H]1C[C@H](COC(=O)N(Cc2cccc[n+]2CC)C(C)=O)O1 (relative stereo) and report it.
Result: 1.17

Request: Find the recorded log10 Ki belonging to CCCCCCCCCCCCCCCCNC(=O)OCC1(COC(=O)N(Cc2cccc[n+]2CC)C(C)=O)CCCC1 and report it.
Result: 0.08

Request: Find the recorded log10 Ki belonging to CCCCCCCCCCCCCCCCOCC1(COC(=O)N(Cc2cccc[n+]2CC)C(C)=O)COC1 and report it.
Result: 2.04

Request: Find the recorded log10 Ki belonging to CCCCCCCCCCCCCCCCCCNC(=O)OCC1(COC(=O)CCCC[n+]2cccc3ccccc32)CCCC1 and report it.
Result: 0.97

Request: Find the recorded log10 Ki belonging to CCCCCCCCCCCCCCCCCCNC(=O)OCC1(COC(=O)N(Cc2cccc[n+]2CC)C(C)=O)CS(=O)(=O)C1 and report it.
Result: 2.44
